The reader will find reported pIC50 values listed item by item below.
test system: 134 cancer cell lines; test: Cell viability assay (ATPlite, 72 hours), IC50 on cancer cell line panel; conditions: read-out: IC50 in cell proliferation assay, cell line DEL (NPM1-ALK)
pIC50: −log10 of the molar value.
measureName: pIC50

> print(dat)
                                   compound  censoringsign  assayresult
1  CC(C)(C)c1nc(-c2cccc(NS(=O)(=O)c3c(F)cccc3F)c2F)c(-c2ccnc(N)n2)s1 [dabrafenib]              <         5.00
2  COc1ccc(CN2C3CC2CN(c2ccc(-c4cc(OCC(C)(C)O)cn5ncc(C#N)c45)cn2)C3)cn1 [selpercatinib]              =         5.47
3  CN1CCN(c2ccc(C(=O)Nc3n[nH]c4ccc(Cc5cc(F)cc(F)c5)cc34)c(NC3CCOCC3)c2)CC1 [entrectinib]              =         6.67
4  Cn1cnc2c(F)c(Nc3ccc(Br)cc3Cl)c(C(=O)NOCCO)cc21 [selumetinib]              <         4.50
5  CCN1CCN(c2ccc(Nc3cc(N(C)C(=O)Nc4c(Cl)c(OC)cc(OC)c4Cl)ncn3)cc2)CC1 [infigratinib]              =         5.45
6  CCc1nc(C(N)=O)c(Nc2ccc(N3CCC(N4CCN(C)CC4)CC3)c(OC)c2)nc1NC1CCOCC1 [gilteritinib]              =         8.59

###

tested on: 134 cancer cell lines; assay: Cell viability assay (ATPlite, 72 hours), IC50 on cancer cell line panel; settings: Homo sapiens, U-118-MG, read-out: IC50 in cell proliferation assay, cell line U-118MG
measureName: IC50 (nM)

> print(dat)
                                smilesinput  units  censoringsign  assayresult
1  FC(F)(F)c1ccc(CNc2ccc(Cc3c[nH]c4ncc(Cl)cc34)cn2)cn1     nM              >        31600
2  C[C@H](Nc1ncnc2nc[nH]c12)c1cc2cccc(Cl)c2c(=O)n1-c1ccccc1     nM              >        31600
3  COc1cc2ncnc(Nc3ccc(F)c(Cl)c3)c2cc1NC(=O)/C=C/CN1CCCCC1     nM              =         3630
4  Cn1cnc2c(F)c(Nc3ccc(Br)cc3Cl)c(C(=O)NOCCO)cc21     nM              >        31600
5  CO[C@]1(C(=O)N[C@@H](C)c2ccc(-n3cc(F)cn3)nc2)CC[C@H](c2nc(C)cc(Nc3cc(C)[nH]n3)n2)CC1     nM              =         2780
6  COC(=O)N[C@@H](C)CNc1nccc(-c2cn(C(C)C)nc2-c2cc(Cl)cc(NS(C)(=O)=O)c2F)n1     nM              =         1410
7  CCc1nc(C(N)=O)c(Nc2ccc(N3CCC(N4CCN(C)CC4)CC3)c(OC)c2)nc1NC1CCOCC1     nM              =         1330

###

target: panel of 255 wild-type kinases (Homo sapiens); test: Kinase panel profiling at 1 µmol/L (MSA or IMAP), percentage inhibition; type: biochemical; conditions: kinase LTK; 1 µmol/L single concentration; read-out: %-inhibition at 1 µmol/L, LTK
Sequence (P29376 17-864): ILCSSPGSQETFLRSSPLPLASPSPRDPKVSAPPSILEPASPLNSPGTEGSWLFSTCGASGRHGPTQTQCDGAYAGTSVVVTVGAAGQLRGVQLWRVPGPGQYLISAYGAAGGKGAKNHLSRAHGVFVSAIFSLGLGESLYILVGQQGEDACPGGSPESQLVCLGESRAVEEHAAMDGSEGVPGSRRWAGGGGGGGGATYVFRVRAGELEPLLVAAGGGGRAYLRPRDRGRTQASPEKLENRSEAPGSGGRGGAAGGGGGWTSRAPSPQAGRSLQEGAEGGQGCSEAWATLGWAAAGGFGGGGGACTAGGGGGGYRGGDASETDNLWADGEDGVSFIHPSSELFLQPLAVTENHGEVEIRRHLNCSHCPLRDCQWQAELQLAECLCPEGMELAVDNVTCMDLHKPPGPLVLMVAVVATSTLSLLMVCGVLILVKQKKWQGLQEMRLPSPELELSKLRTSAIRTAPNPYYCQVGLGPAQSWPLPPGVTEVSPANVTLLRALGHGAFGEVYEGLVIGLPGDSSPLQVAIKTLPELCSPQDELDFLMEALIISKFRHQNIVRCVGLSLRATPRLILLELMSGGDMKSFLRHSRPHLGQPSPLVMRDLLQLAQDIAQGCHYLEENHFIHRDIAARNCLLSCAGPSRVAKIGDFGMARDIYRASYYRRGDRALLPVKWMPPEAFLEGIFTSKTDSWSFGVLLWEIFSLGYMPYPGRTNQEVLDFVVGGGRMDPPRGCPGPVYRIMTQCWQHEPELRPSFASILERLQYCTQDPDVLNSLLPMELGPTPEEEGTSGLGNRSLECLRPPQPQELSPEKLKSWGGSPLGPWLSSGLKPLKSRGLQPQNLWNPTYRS
Quick reference: inhibition at 1 µM of the listed items.
measureName: inhibition at 1 µM (%)

> print(dat)
                                smilesinput         measurename  assayresult
1  C=CC(=O)N1CCC([C@@H]2CCNc3c(C(N)=O)c(-c4ccc(Oc5ccccc5)cc4)nn32)CC1  inhibition at 1 µM        0.209
2  Cc1nc(NC(=O)N2CCC[C@H]2C(N)=O)sc1-c1ccnc(C(C)(C)C(F)(F)F)c1  inhibition at 1 µM        -2.85
3  CN1CCN(c2ccc(C(=O)Nc3n[nH]c4ccc(Cc5cc(F)cc(F)c5)cc34)c(NC3CCOCC3)c2)CC1  inhibition at 1 µM          100
4  O=C(Nc1cnn2ccc(N3CCC[C@@H]3c3cc(F)ccc3F)nc12)N1CC[C@H](O)C1  inhibition at 1 µM           16
